assay: NCI Yeast Anticancer Drug Screen. Data for the mgt1 strain (AID 153); conditions: S. cerevisiae mgt1 mutant growth inhibition; at 33.0 µM
This is part of a sample that, as a whole, favours compounds with a hit. Of some 79,000 tested, about 15% had one in any assay. The source made the active and inactive calls. Rule as the data show it: active = growth inhibition above about 70%; inactive = the rest.
Allowed answers: true for active, false for inactive

compound | assigned_class
O=C1C(Br)=CC(Br)(Br)C=C1Br | true
O=C1c2ccccc2C2CCC1c1ccccc12 (stereo not drawn) | false
O=C(Cc1ccccc1F)NC1=C(Cl)C(=O)c2ccccc2C1=O | false
CN(C)CCNC(=O)c1cccc2nc3c(ccc4ccccc43)nc12 | false
[N-]=[N+]=NC1CC(n2ccc(=O)[nH]c2=O)OC1COC(c1ccccc1)(c1ccccc1)c1ccccc1 (stereo not drawn) | true
O=C1OC(c2ccc(Cl)cc2)Sc2ccccc21 (stereo not drawn) | true
O=C(CSS(=O)(=O)O)c1ccccc1 | false
CCOc1ccc2ccc3cccnc3c2n1 | false

Input: Hi team, can someone confirm the assay call for CNC(=O)OCc1c(COC(=O)NC)c(C)n(-c2ccc(Cl)c(Cl)c2)c1C ?
Output: true

Input: Hi team, can someone confirm the assay call for [O-]c1c2cc(-[n+]3c(-c4ccccc4)cc(-c4ccccc4)cc3-c3ccccc3)cc1COCCOCCOCCOCCOC2 ?
Output: false

Input: Hi team, can someone confirm the assay call for COc1cc(NCCCCCNC(C)C)c2ncccc2c1Cl ?
Output: false

Input: Hi team, can someone confirm the assay call for c1ccc2cc(OCC3CO3)c(OCC3CO3)cc2c1 (stereo not drawn) ?
Output: false

Input: Hi team, can someone confirm the assay call for C[n+]1c(-c2ccc(NC(=O)c3ccc(C(=O)Nc4ccc(-c5cn6ccccc6[n+]5C)cc4)cc3)cc2)cn2ccccc21 ?
Output: true

Input: Hi team, can someone confirm the assay call for Nc1ccc2cc(Br)c3ccccc3c2c1 ?
Output: false

Input: Hi team, can someone confirm the assay call for O=C(Nc1ccn(C2CC(O)C(COC(c3ccccc3)(c3ccccc3)c3ccccc3)O2)c(=O)n1)c1ccccc1 (stereo not drawn) ?
Output: true

Input: Hi team, can someone confirm the assay call for O=C(O)/C=C\C(=O)NNc1ccc(Br)cc1 ?
Output: true

Input: Hi team, can someone confirm the assay call for CCCCOc1ccc(Nc2c3ccccc3nc3ccccc23)cc1 ?
Output: true

Input: Hi team, can someone confirm the assay call for O=Cc1ccccc1B(O)O ?
Output: true

Input: Hi team, can someone confirm the assay call for CCN(CC)c1ccc(N=Nc2cc(S(=O)(=O)O)ccc2O)c(O)c1 ?
Output: false

Input: Hi team, can someone confirm the assay call for COc1cc(C(C)C(C(=O)O)C(=O)C(=O)O)cc(OC)c1OC (stereo not drawn) ?
Output: false

Input: Hi team, can someone confirm the assay call for CN(C)CCC(=O)c1c[nH]c2ccccc12 ?
Output: false

Input: Hi team, can someone confirm the assay call for O=S(=O)(Oc1c(Cl)cc(Cl)cc1Cl)c1ccccc1 ?
Output: false

Input: Hi team, can someone confirm the assay call for Cc1c(N=Nc2ccc(Cl)cc2)c(C)n(C2OC(CO)C(O)C(O)C2O)c(=S)c1C#N (stereo not drawn) ?
Output: false

---

In this section, each of the compounds is paired with its reported growth inhibition.
assay: NCI Yeast Anticancer Drug Screen. Data for the mlh1 strain (AID 171);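 also: 0% = growth of vehicle-treated control cultures of the same strain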; conditions: S. cerevisiae mlh1 strain growth inhibition; at 100.0 µM; stronger effect = higher value
Compounds without any hit were thinned out: in the full panel of roughly 79,000, 15% have a hit. Calls of active or inactive are those of the source. No stated cut-off is given here; in the data, active means growth inhibition above about 70%; inactive means the rest. Starred links: 1 amine or outer side, 2 acyl side, 3 side chain; linkers in the order of their positions; H or OH if unused. Positions of bridges follow the written chain, without caps; N, C: chain ends. Non-standard residues stand in square brackets, D forms with d. Residues, ends and D or L forms follow the SMILES beside them. Chains are numbered I, II in the order given. Actinocin(9to1) = Cc1c2oc3c(C)ccc(C(=O)[*:1])c3nc-2c(C(=O)[*:2])c(N)c1=O; aThr = C[C@H](O)[C@H](N)C(=O)O; NMeV = CN[C@H](C(=O)O)C(C)C; Sar = CNCC(=O)O

compound | test_result
CCOC(=O)/C(O)=C(/C=N/C(=S)Nc1c(CC)cccc1CC)C(=O)OCC | 45% (inactive)
CCCC#CCOC(=O)c1cc([N+](=O)[O-])cc([N+](=O)[O-])c1 | 99% (active)
CC(O)CN1C(=O)c2cccc3cc([N+](=O)[O-])cc(c23)C1=O (stereo not drawn) | 47% (inactive)
Cc1ccc(Cl)c2c(=O)c3ccccc3[nH]c12 | 12% (inactive)
O=C1C(Br)=CC(Br)(Br)C=C1Br | 98% (active)

Notebook: CN(C)CCNC(=O)c1cccc2nc3c(ccc4ccccc43)nc12 , growth inhibition read as 98% (active)

Notebook: O=C(O)/C=C\C(=O)NNc1ccc(Br)cc1 , growth inhibition read as 99% (active)

Notebook: Cc1nc2ccccc2c(=O)n1NC(=O)c1ccc(CS)cc1 , growth inhibition read as 95% (active)

Notebook: Cc1cc(N(CCOS(C)(=O)=O)CCOS(C)(=O)=O)ccc1C=O , growth inhibition read as 60% (inactive)

Notebook: CC(=O)O/N=C/c1c2ccccc2cc2ccccc12 , growth inhibition read as 52% (inactive)

Notebook: Cn1c(COc2ccc(/C=N/NC(=O)CCC(=O)N/N=C/c3ccc(OCc4c[n+]5ccccc5n4C)cc3)cc2)c[n+]2ccccc12 , growth inhibition read as 96% (active)

Notebook: Cc1c2oc3c(C)ccc(C(=O)N[C@@H]4C(=O)N[C@H](C(C)C)C(=O)N5CCC[C@H]5C(=O)N(C)CC(=O)N(C)[C@@H](C(C)C)C(=O)O[C@H]4C)c3nc-2c(C(=O)N[C@@H]2C(=O)N[C@H](C(C)C)C(=O)N3CCC[C@H]3C(=O)N(C)CC(=O)N(C)[C@@H](C(C)C)C(=O)O[C@H]2C)c(N)c1=O (I: [aThr][dV]P[Sar][NMeV] / II: [aThr][dV]P[Sar][NMeV]; ester I:1-I:C, II:1-II:C; linker I:N-II:N via Actinocin(9to1)) , growth inhibition read as 99% (active)
